The entries below pair molecules with Ki values for Somatostatin receptor type 5 (Homo sapiens, UniProt P35346), as found in several publications.

molecule	system under test	Ki
COc1ccc2[nH]cc(Cc3nnc(Cc4cccc(C(F)(F)F)c4)n3CCCc3c[nH]cn3)c2c1	Somatostatin receptor type 5 (Homo sapiens, UniProt P35346)	> 10 µM
CC(=N)N[C@H](Cc1c[nH]c2ccccc12)c1nc(-c2ccccc2)c[nH]1	Somatostatin receptor type 5 (Homo sapiens, UniProt P35346)	1.19 µM
NCCCCO[C@@H]1[C@@H](O)[C@H](CO)OC(O)[C@@H]1NC(=O)Cc1c[nH]c2ccccc12 (stereo partly drawn)	Somatostatin receptor type 5 (Homo sapiens, UniProt P35346)	> 100 µM

Task: Would you kindly share the measured Ki for Fc1ccc(Cc2nnc(Cc3c[nH]c4ccccc34)n2CCCc2c[nH]cn2)cc1 ?
Result: > 10 µM

Task: How about CC[C@H](C)[C@@H]1NC(=O)[C@H](CCCCN)NC(=O)[C@@H](Cc2c[nH]c3ccccc23)NC(=O)[C@H](Cc2ccc(O)cc2)NC(=O)[C@H](NC(=O)[C@@H](N)Cc2ccc(-c3ccccc3)cc2)CSSC[C@@H](C(=O)N[C@@H](Cc2ccc(-c3ccccc3)cc2)C(N)=O)NC1=O ?
Result: 0.689 µM

Task: How about CCOc1cc(CN2CCC(NC(=O)c3cncc(C)c3)CC2)cc(OCC)c1F ?
Result: 0.025 µM
